Data provenance is ChEMBL document CHEMBL1157802.

Target: Glucocorticoid receptor (Homo sapiens, UniProt P04150)
Sequence (P04150 whole entry): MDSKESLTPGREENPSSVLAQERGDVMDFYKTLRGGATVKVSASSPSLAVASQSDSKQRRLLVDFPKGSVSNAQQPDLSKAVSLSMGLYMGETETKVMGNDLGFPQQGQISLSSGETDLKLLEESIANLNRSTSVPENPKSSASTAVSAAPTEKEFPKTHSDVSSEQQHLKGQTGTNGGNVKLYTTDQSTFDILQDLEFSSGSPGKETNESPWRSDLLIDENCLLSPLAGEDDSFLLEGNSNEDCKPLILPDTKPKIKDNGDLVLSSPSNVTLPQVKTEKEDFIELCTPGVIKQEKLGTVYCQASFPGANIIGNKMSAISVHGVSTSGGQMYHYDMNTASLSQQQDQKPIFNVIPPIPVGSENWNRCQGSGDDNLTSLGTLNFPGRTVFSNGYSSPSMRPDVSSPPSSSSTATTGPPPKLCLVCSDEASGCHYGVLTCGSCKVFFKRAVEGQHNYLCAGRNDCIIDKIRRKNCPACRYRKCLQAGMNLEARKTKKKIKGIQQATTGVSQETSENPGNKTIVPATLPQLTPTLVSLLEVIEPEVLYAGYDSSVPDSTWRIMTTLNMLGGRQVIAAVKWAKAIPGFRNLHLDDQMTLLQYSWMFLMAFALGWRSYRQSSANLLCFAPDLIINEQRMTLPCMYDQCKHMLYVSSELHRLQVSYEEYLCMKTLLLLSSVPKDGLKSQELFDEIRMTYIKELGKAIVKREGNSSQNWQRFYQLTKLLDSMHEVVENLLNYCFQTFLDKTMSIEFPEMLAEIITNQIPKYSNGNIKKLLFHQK
Assay: Agonist activity at glucocorticoid receptor in human fibroblast assessed as inhibition of IL-1-beta-induced IL6 production treated 1 hr before IL1-beta challenge measured after 24 hrs by transrepression assay
Format: functional
In this section we review reported pEC50 values for a set of compounds.
Scale: negative log10 of molar concentration, which is what pEC50 denotes.

Return reported pEC50; argument: OC(c1ccc(F)c(Cl)c1)(c1ccc2c(cnn2-c2ccc(F)cc2)c1)C(F)(F)F (single isomer, unassigned; (-))
7.03

---
// query pEC50 value for entry Cc1cc(C(O)(c2ccc3c(cnn3-c3ccc(F)cc3)c2)C(F)(F)F)ccc1F (single isomer, unassigned; (-))
7.03

Consider next the compound N#Cc1cc(C(O)(c2ccc3c(cnn3-c3ccc(F)cc3)c2)C(F)(F)F)ccc1F (single isomer, unassigned; (-)) in the same way.
6.95

Query OC(c1ccnc(Cl)c1)(c1ccc2c(cnn2-c2ccc(F)cc2)c1)C(F)(F)F (single isomer, unassigned; (-)) next
6.20

Next compound up: OC(c1ccc2c(cnn2-c2ccc(F)cc2)c1)(c1cccc(Cl)c1Cl)C(F)(F)F (single isomer, unassigned; (+))
7.72
